Tested on: rodent lifetime carcinogenesis bioassay, tumor incidence TD50
Assay: carcinogenic potency in animals, long-term in vivo studies, CPDB compilation (AID 1745844)
Conditions: rat; strain Fischer 344; females; in feed; site: esophagus + mammary gland + palate + thyroid gland + tongue; lesion: squamous-cell papilloma + adenoma + carcinoma + fibroadenoma + squamous-cell carcinoma + follicular-cell adenoma + follicular-cell c; dosed 104 weeks; study length 105 weeks
OBSERVATION_TYPE: TD50 (mg/kg/day)
Numbers only; they are read as mg/kg/day.

Need TD50, item OCC(CO)(CBr)CBr
84.3

* * *

Tested on: rodent lifetime carcinogenesis bioassay, tumor incidence TD50
Assay: carcinogenic potency in animals, long-term in vivo studies, CPDB compilation (AID 1745844)
Settings: rat; strain ACI/n; males; in feed; site: forestomach; lesion: papilloma; dosed 68 weeks; study length 68 weeks
OBSERVATION_TYPE: TD50
Write the numeric value and append its unit.

Form entry - test system: rodent lifetime carcinogenesis bioassay, tumor incidence TD50; read-out: TD50; molecule: O=C1c2ccccc2C(=O)c2c(O)cccc21
789 mg/kg/day

* * *

Tested on: rodent lifetime carcinogenesis bioassay, tumor incidence TD50
Assay: carcinogenic potency in animals, long-term in vivo studies, CPDB compilation (AID 1745844)
Conditions: mouse; strain B6C3F1; females; in feed; site: subcutaneous tissue; lesion: fibrosarcoma + sarcoma; dosed 104 weeks; study length 106 weeks
OBSERVATION_TYPE: TD50

Need TD50, item OCC(CO)(CBr)CBr
322 mg/kg/day

* * *

Tested on: rodent lifetime carcinogenesis bioassay, tumor incidence TD50
Experiment: carcinogenic potency in animals, long-term in vivo studies, CPDB compilation (AID 1745844)
Settings: rat; strain Fischer 344; males; by gavage; site: liver; lesion: cholangiocarcinoma; dosed 103 weeks; study length 104 weeks
OBSERVATION_TYPE: TD50

Need TD50, item c1ccoc1
0.398 mg/kg/day

* * *

System: rodent lifetime carcinogenesis bioassay, tumor incidence TD50
Assay: carcinogenic potency in animals, long-term in vivo studies, CPDB compilation (AID 1745844)
Conditions: rat; strain Fischer 344; females; in drinking water; site: mammary gland; lesion: adenocarcinoma; dosed 98 weeks; study length 104 weeks
OBSERVATION_TYPE: TD50 (mg/kg/day)
Numbers only; they are read as mg/kg/day.

Need TD50, item Cc1ccc(S(=O)(=O)Oc2ccc(N=Nc3ccc(-c4ccc(N=Nc5c(O)ccc6cc(S(=O)(=O)O)cc(S(=O)(=O)O)c56)c(C)c4)cc3C)cc2)cc1
40.6

* * *

Test system: rodent lifetime carcinogenesis bioassay, tumor incidence TD50
Experiment: carcinogenic potency in animals, long-term in vivo studies, CPDB compilation (AID 1745844)
Details: rat; strain Fischer 344; females; by gavage; site: mammary gland; lesion: fibroadenoma; dosed 100 weeks; study length 104 weeks
OBSERVATION_TYPE: TD50 (mg/kg/day)
Numbers only; they are read as mg/kg/day.

Form entry - test system: rodent lifetime carcinogenesis bioassay, tumor incidence TD50; read-out: TD50; compound: CC(C)=CCl
38.3

* * *

System: rodent lifetime carcinogenesis bioassay, tumor incidence TD50
Assay: carcinogenic potency in animals, long-term in vivo studies, CPDB compilation (AID 1745844)
Settings: rat; strain Fischer 344; females; in feed; site: forestomach; lesion: squamous-cell carcinoma + squamous-cell papilloma; dosed 103 weeks; study length 104 weeks
OBSERVATION_TYPE: TD50 (mg/kg/day)
Numbers only; they are read as mg/kg/day.

Form entry - test system: rodent lifetime carcinogenesis bioassay, tumor incidence TD50; read-out: TD50; compound: COc1ccccc1[N+](=O)[O-]
1270
